The reported numbers originate from PubChem BioAssay (NCI).

assay: NCI Yeast Anticancer Drug Screen. Data for the rad50 strain (AID 155);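 also: 0% = growth of vehicle-only cultures of the same strain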; details: S. cerevisiae rad50 strain growth inhibition; at 5.0 µM (retest, dose inferred, filed as 0.5); hits give high values
About 79,000 compounds went through this panel and 15% of them were active in at least one assay; those are over-represented in the sample as a whole.
metricName: growth inhibition (%)
Supply the numeric figure in %, leaving out any unit text.

What does the data say about its growth inhibition? Entry: Cc1cc(C(N)=O)cc(C)c1C(=O)OCCCl
-4

Now consider CCCCCCCCCCCC[n+]1ccccc1 (tested in a mixture with another compound) .
34

Another: CCCCCCCCCCCCCCCCCC1=NCCCN1CCO
7

# iterate: Cc1ccc(N2C(=O)C=CC2=O)cc1
95

Same read-out for COC(=O)[C@]1(C)CCC[C@@]2(C)[C@@H]3C[C@@H]4[C@H]5C[C@@]3(CC[C@@H]21)C[C@@]45C ?
31
